System: Escherichia coli SS
experimental protocol: In vitro antibacterial activity, agar dilution MIC
Format: cell-based
condition label: E. coli SS, Brain Heart Infusion agar, 20-24 hours, read-out: MIC
Listing: MIC of selected compounds
Record the value in µg/mL, omitting the unit from your answer.

Examples with answers:
[[record]]
structure_string = "CC[C@H]1OC(=O)[C@H](C)[C@@H](O[C@H]2C[C@@](C)(OC)[C@@H](O)[C@H](C)O2)[C@H](C)[C@@H](O[C@@H]2O[C@H](C)C[C@H](N(C)C)[C@H]2O)[C@](C)(O)C[C@@H](C)[C@@H](N2CCCCC2)[C@H](C)[C@@H](O)[C@]1(C)O"
measured_property = "MIC"
recorded_value = 0.39

[[record]]
structure_string = "CC[C@H]1OC(=O)[C@H](C)[C@@H](O[C@H]2C[C@@](C)(OC)[C@@H](O)[C@H](C)O2)[C@H](C)[C@@H](O[C@@H]2O[C@H](C)C[C@H](N(C)C)[C@H]2O)[C@](C)(O)C[C@@H](C)[C@@H](N2CCCC2)[C@H](C)[C@@H](O)[C@]1(C)O"
measured_property = "MIC"
recorded_value = 0.39

[[record]]
structure_string = "CC[C@H]1OC(=O)[C@H](C)[C@@H](O[C@H]2C[C@@](C)(OC)[C@@H](O)[C@H](C)O2)[C@H](C)[C@@H](O[C@@H]2O[C@H](C)C[C@H](N(C)C)[C@H]2O)[C@](C)(O)C[C@@H](C)[C@@H](N2CCNCC2)[C@H](C)[C@@H](O)[C@]1(C)O"
measured_property = "MIC"
recorded_value = 1.56


Tell me the measured MIC of CC[C@H]1OC(=O)[C@H](C)[C@@H](O[C@H]2C[C@@](C)(OC)[C@@H](O)[C@H](C)O2)[C@H](C)[C@@H](O[C@@H]2O[C@H](C)C[C@H](N(C)C)[C@H]2O)[C@](C)(O)C[C@@H](C)[C@@H](N2CCS(=O)(=O)CC2)[C@H](C)[C@@H](O)[C@]1(C)O , please.
1.56

Please report the recorded MIC for CC[C@H]1OC(=O)[C@H](C)[C@@H](O[C@H]2C[C@@](C)(OC)[C@@H](O)[C@H](C)O2)[C@H](C)[C@@H](O[C@@H]2O[C@H](C)C[C@H](N(C)C)[C@H]2O)[C@](C)(O)C[C@@H](C)[C@@H](N2CCN(C(=O)c3ccccc3)CC2)[C@H](C)[C@@H](O)[C@]1(C)O .
3.1

Endpoint output: MIC of CC[C@H]1OC(=O)[C@H](C)[C@@H](O[C@H]2C[C@@](C)(OC)[C@@H](O)[C@H](C)O2)[C@H](C)[C@@H](O[C@@H]2O[C@H](C)C[C@H](N(C)C)[C@H]2O)[C@](C)(O)C[C@@H](C)[C@@H](N2CCN(C(C)=O)CC2)[C@H](C)[C@@H](O)[C@]1(C)O . Value?
1.56

State the recorded MIC for this entry: CC[C@H]1OC(=O)[C@H](C)[C@@H](O[C@H]2C[C@@](C)(OC)[C@@H](O)[C@H](C)O2)[C@H](C)[C@@H](O[C@@H]2O[C@H](C)C[C@H](N(C)C)[C@H]2O)[C@](C)(O)C[C@@H](C)[C@@H](N2CCCCCC2)[C@H](C)[C@@H](O)[C@]1(C)O
0.1

Requested field: MIC. Item: CC[C@H]1OC(=O)[C@H](C)[C@@H](O[C@H]2C[C@@](C)(OC)[C@@H](O)[C@H](C)O2)[C@H](C)[C@@H](O[C@@H]2O[C@H](C)C[C@H](N(C)C)[C@H]2O)[C@](C)(O)C[C@@H](C)[C@@H](N2CCN(C(=O)OCc3ccccc3)CC2)[C@H](C)[C@@H](O)[C@]1(C)O
3.1
